The measured values listed here are drawn from patent US8445636B2.

Recorded measurements of Minimal Inhibitory Concentration, C. albicans ATCC 10231, one per entry
- Test system: Candida albicans ATCC 10231
- Protocol Summary: microbe, parasite or virus in culture
- Type: cell-based
- Conditions: ATCC 10231, pH 7.4
Non-standard residues stand in square brackets, D forms with d. Residues, ends and D or L forms follow the SMILES beside them. *: point of attachment. Myristoyl = CCCCCCCCCCCCCC(=O)*; Decanoyl = CCCCCCCCCC(=O)*
# number only, unit µM dropped from output

Look over these answered cases.
Compound: CCCCCCCCCC(=O)N[C@H](CC(C)C)C(=O)N[C@@H](CCCCN)C(=O)N[C@@H](CCCCN)C(=O)N[C@H](CC(C)C)C(=O)N[C@H](CC(C)C)C(=O)N[C@@H](CCCCN)C(=O)N[C@@H](CCCCN)C(=O)N[C@H](CC(C)C)C(=O)N[C@H](CC(C)C)C(=O)N[C@@H](CCCCN)C(=O)N[C@@H](CCCCN)C(=O)N[C@H](CC(C)C)C(N)=O [lipopeptide 21] (Decanoyl-[dL]KK[dL][dL]KK[dL][dL]KK[dL]-NH2)
Measured Result: 25

Compound: CCCCCCCCCCCCCC(=O)N[C@H](CC(C)C)C(=O)N[C@@H](CCCCN)C(=O)N[C@@H](CCCCN)C(=O)N[C@H](CC(C)C)C(=O)N[C@H](CC(C)C)C(=O)N[C@@H](CCCCN)C(=O)N[C@@H](CCCCN)C(=O)N[C@H](CC(C)C)C(=O)N[C@H](CC(C)C)C(=O)N[C@@H](CCCCN)C(=O)N[C@@H](CCCCN)C(=O)N[C@H](CC(C)C)C(N)=O [lipopeptide 23] (Myristoyl-[dL]KK[dL][dL]KK[dL][dL]KK[dL]-NH2)
Measured Result: 1.56

Now consider a different compound.
Field request: Minimal Inhibitory Concentration, C. albicans ATCC 10231 | item: CCCCCCCCCCCCCC(=O)N[C@H](CCCCN)C(=O)NCC(=O)NCC(=O)NCC(=O)N[C@H](CCCCN)C(=O)NCC(=O)NCC(=O)NCC(=O)N[C@H](CCCCN)C(=O)NCC(=O)NCC(=O)N[C@H](CCCCN)C(N)=O [lipopeptide 1] (Myristoyl-[dK]GGG[dK]GGG[dK]GG[dK]-NH2) 3.125

---

Readings of Minimal inhibitory concentrations, E. Coli ATCC 25922 for the listed compounds
- Tested on: Escherichia coli ATCC 25922
- Type: cell-based
- Conditions: ATCC 25922, pH 7.4
Non-standard residues stand in square brackets, D forms with d. Residues, ends and D or L forms follow the SMILES beside them. *: point of attachment. Lauroyl = CCCCCCCCCCCC(=O)*
Write the value in µM as a bare number.

As a guide, the following entries are already answered.
Compound: CCCCCCCCCCCC(=O)N[C@H](CC(C)C)C(=O)N[C@@H](CCCNC(=N)N)C(=O)N[C@@H](Cc1c[nH]cn1)C(=O)N[C@H](CC(C)C)C(=O)N[C@H](CC(C)C)C(=O)N[C@@H](CCCNC(=N)N)C(=O)N[C@@H](Cc1c[nH]cn1)C(=O)N[C@H](CC(C)C)C(=O)N[C@H](CC(C)C)C(=O)N[C@@H](CCCNC(=N)N)C(=O)N[C@@H](Cc1c[nH]cn1)C(=O)N[C@H](CC(C)C)C(N)=O [lipopeptide 27] (Lauroyl-[dL]RH[dL][dL]RH[dL][dL]RH[dL]-NH2)
Measured Result: 100
--
Compound: CCCCCCCCCCCC(=O)N[C@H](CC(C)C)C(=O)N[C@@H](CCCCN)C(=O)N[C@@H](CCCCN)C(=O)N[C@H](CC(C)C)C(=O)N[C@H](CC(C)C)C(=O)N[C@@H](CCCCN)C(=O)N[C@@H](CCCCN)C(=O)N[C@H](CC(C)C)C(=O)N[C@H](CC(C)C)C(=O)N[C@@H](CCCCN)C(=O)N[C@@H](CCCCN)C(=O)N[C@H](CC(C)C)C(N)=O [lipopeptide 22] (Lauroyl-[dL]KK[dL][dL]KK[dL][dL]KK[dL]-NH2)
Measured Result: 75

Can you share its Minimal inhibitory concentrations, E. Coli ATCC 25922? I mean this compound: CCCCCCCCCCCC(=O)N[C@H](CC(C)C)C(=O)N[C@@H](CCCCN)C(=O)N[C@@H](Cc1c[nH]cn1)C(=O)N[C@H](CC(C)C)C(=O)N[C@H](CC(C)C)C(=O)N[C@@H](CCCCN)C(=O)N[C@@H](Cc1c[nH]cn1)C(=O)N[C@H](CC(C)C)C(=O)N[C@H](CC(C)C)C(=O)N[C@@H](CCCCN)C(=O)N[C@@H](Cc1c[nH]cn1)C(=O)N[C@H](CC(C)C)C(N)=O [lipopeptide 28] (Lauroyl-[dL]KH[dL][dL]KH[dL][dL]KH[dL]-NH2) 100
